Source: patent US11045457B2

system tested: SSTR4 (Homo sapiens (Human))
Sequence (P31391 whole entry): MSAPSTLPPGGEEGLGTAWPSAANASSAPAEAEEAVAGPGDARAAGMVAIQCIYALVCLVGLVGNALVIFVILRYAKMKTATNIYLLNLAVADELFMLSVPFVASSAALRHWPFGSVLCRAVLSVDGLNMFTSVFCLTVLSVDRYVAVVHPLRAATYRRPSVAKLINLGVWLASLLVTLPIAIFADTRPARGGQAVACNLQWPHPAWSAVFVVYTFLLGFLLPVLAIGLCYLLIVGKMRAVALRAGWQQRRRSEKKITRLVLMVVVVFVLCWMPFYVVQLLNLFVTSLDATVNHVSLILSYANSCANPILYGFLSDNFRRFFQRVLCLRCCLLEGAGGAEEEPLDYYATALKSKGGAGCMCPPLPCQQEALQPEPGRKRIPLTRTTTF
method description: Inhibition of forskolin stimulated cAMP in CHO-K1 cells overexpressing SSTR4
Assay type: cell-based
property measured: SSTR4 Activity pEC50

compound	value
Cc1ccccc1[C@@H]1CNCC[C@H]1NC(=O)C(C)(C)COc1ncccc1C(F)(F)F (relative stereo)	9.9
Cc1cnc(OCC(C)(C)C(=O)N[C@H]2CN(C)CC23CC3)c(C)c1	7.4
COc1cccnc1OCC(C)(C)C(=O)NC1CCN(C)CC1	6.7
CN1CCC(NC(=O)C(F)(F)COc2ccccc2Cl)CC1	6.7
CN1CC[C@H](NC(=O)C(C)(C)COc2ccccc2Cl)[C@@H](F)C1	8.2
Cc1cccnc1OCC(C)(C)C(=O)N[C@@H]1CCN(C)C[C@H]1C [Example 142]	6.1
CN1CCC(NC(=O)C(C)(C)COc2ncccc2C(F)(F)F)CC12CC2 (centres unmarked)	6.2
C[C@H]1CNCC[C@@H]1NC(=O)C(C)(C)COc1ccccc1Cl	9.8
CN1CCC(NC(=O)C(C)(C)COc2ncccc2C(F)(F)F)CC1	7.4
Cc1nn(C)cc1[C@@H]1CN(C)C[C@H]1NC(=O)C(C)(C)COc1ncccc1OC(F)(F)F (relative stereo)	8.4
C[C@@H]1CN(CC#N)CC[C@H]1NC(=O)C(C)(C)COc1ncccc1OC(F)(F)F (relative stereo)	7.6
CN1CCC(NC(=O)C(C)(C)COc2ncccc2C(F)(F)F)C(F)(F)C1 (centres unmarked)	6.2
Cc1cccnc1OCC(C)(C)C(=O)NC1CCN(C)CC1	7.3
C[C@@H]1CN(C)C[C@H]1NC(=O)C(C)(C)COc1ncccc1OC(F)(F)F (relative stereo)	7.6
CN1CC[C@H](NC(=O)C(C)(C)COc2ncccc2C(F)(F)F)[C@@H](F)C1	7.6
C[C@H]1CN(C)CC[C@@H]1NC(=O)C(C)(C)COc1ncccc1C(F)(F)F	8.1
CC(C)(COc1ccccc1Cl)C(=O)N[C@H]1CCNC[C@@H]1F	8.8
CN1CC[C@@H](NC(=O)C(C)(C)COc2ncccc2OC(F)(F)F)[C@H](c2ccccc2)C1 (relative stereo)	6.8
CN1CCC(NC(=O)C(C)(C)COc2ccccc2)CC1	6.4
CN1CCC(NC(=O)C(C)(C)COc2ncccc2C2CC2)CC1	8.1
CN1C[C@@H](NC(=O)C(C)(C)COc2ncccc2C(F)(F)F)C2(CC2)C1	6.3
CN1CCC(NC(=O)C(C)(C)COc2cnccc2C(F)(F)F)CC1	7.2
CN1CCC(NC(=O)C(C)(C)COc2ncc(F)cc2Cl)CC1	5.8
CCOc1cccnc1OCC(C)(C)C(=O)NC1CCN(C)CC1	7.0
CN1CCC(NC(=O)C(C)(C)COc2cccc3c2CCC3)CC1	7.0
CN1CCC(NC(=O)C(C)(C)COc2ncccc2F)CC1	6.3
CCOc1ccccc1OCC(C)(C)C(=O)NC1CCN(C)CC1	7.4
CN1CCC(NC(=O)C(C)(C)COc2ncccc2C(F)(F)F)CC1(C)C (centres unmarked)	7.1
CN1CCC(NC(=O)C2(COc3ccccc3Cl)CC2)CC1	6.3
Cc1ccccc1[C@@H]1CN(C)CC[C@H]1NC(=O)C(C)(C)COc1ncccc1C(F)(F)F (relative stereo)	9.1
Cc1cc(Cl)cnc1OCC(C)(C)C(=O)NC1CCN(C)CC1	6.8
CCc1cccnc1OCC(C)(C)C(=O)N[C@@H]1CCN(C)C1	7.3
CN1CCC(NC(=O)C(C)(C)COc2nccc(Cl)c2F)CC1	5.9
Cc1cnc(OCC(C)(C)C(=O)N[C@@H]2CCN(C)C2)c(C2CC2)c1	7.2
Cc1cccc(C#N)c1OCC(C)(C)C(=O)NC1CCN(C)CC1	6.4
